experiment: chemical genetic growth profiling, strain panel (AID 1159580);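 also: tested at 20 µM; growth read once vehicle control cultures reached saturation at 30 °C; 1 = growth at the plate median or of vehicle wells; lower values mean less growth of the strain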; conditions: S. cerevisiae deletion strains, growth OD, locus YBR009C, strain hhf1
The campaign covered roughly 5,500 compounds. About 2,000 (36%) were called active. Not shown: some 18% with an inconclusive outcome. Rule as the data show it: active = normalized growth mostly below about 0.91 (no sharp cut-off); inconclusive = no clear call, values can overlap the other calls; inactive = mostly above about 0.92. This is one part of the list.
Your response should consist of one outcome taken from y = active, n = inactive

Use the examples below as a reference point.
compound	assignedClass
COc1cc(/C=C/C(=O)/C=C(O)/C=C/c2ccc(O)c(OC)c2)ccc1O	y
COc1cc(NS(=O)(=O)c2ccc(N)cc2)nc(OC)n1	n
CC1=C(C(C)O)C2=NC1C=c1[nH]c(c(C)c1C(C)O)=Cc1[nH]c(c(CCC(=O)O)c1C)C=c1[nH]c(c(C)c1CCC(=O)O)=C2 (stereo unspecified)	n
CC1=C(C/C=C(\C)CCC[C@H](C)CCC[C@H](C)CCCC(C)C)C(=O)c2ccccc2C1=O	n
CC(=O)[C@H]1CCC2C3CCC4=CC(=O)CC[C@]4(C)C3CC[C@@]21C (stereo partly specified)	n

Test call, this compound: CN(C)C(=S)SSC(=S)N(C)C y

Test call, this compound: c1cncc(C2CCCCN2)c1 (stereo unspecified) n

Test call, this compound: COC1=C(OC)C(=O)C(C/C=C(\C)CC/C=C(\C)CC/C=C(\C)CC/C=C(/C)CC/C=C(\C)CC/C=C(\C)CC/C=C(\C)CC/C=C(\C)CC/C=C(\C)CCC=C(C)C)=C(C)C1=O n

Test call, this compound: Cc1cc(O)c(C=O)c(O)c1C(=O)O n

Test call, this compound: CCN(CC)CCCC(C)Nc1ccnc2cc(Cl)ccc12 (stereo unspecified) n

Test call, this compound: CN1CCCN=C1COC(=O)C(O)(c1ccccc1)C1CCCCC1 (stereo unspecified) n

Test call, this compound: CCOC(=O)c1c(C)c(Cl)c(O)c(Cl)c1O y

Test call, this compound: CC1=C(/C=C/C(C)=C/C=C/C(C)=C/C=C/C=C(C)/C=C/C=C(C)/C=C/C(=O)[C@]2(C)C[C@@H](O)CC2(C)C)C(C)(C)C[C@H](O)C1 n

Test call, this compound: Cc1cc(O)c(C)c(O)c1C(=O)O n

Test call, this compound: CCCCCCCCCCCCCCCC[N+](C)(C)C y

Test call, this compound: CCOC(=O)c1c(C)cc(O)c(C=O)c1O y

* * *

experiment: chemical genetic growth profiling, strain panel (AID 1159580);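 also: tested at 20 µM; growth read once vehicle control cultures reached saturation at 30 °C; 1 = growth at the plate median or of vehicle wells; lower values mean less growth of the strain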; settings: S. cerevisiae deletion strains, growth OD, locus YLR027C, strain aat2, active compounds read low
Screen size: about 5,500 compounds; about 2,000 (36%) were called active. Inconclusive results (about 18%) are left out. Some of the results follow.
propertyLabel: normalized growth
Answer as a number with no unit attached.

compound	measValue
COP(=O)(OC)OC=C(Cl)Cl	1
CCN(CC)CCCC(C)Nc1ccnc2cc(Cl)ccc12 (centres undefined)	1.01
CC(C(=O)O)c1cccc(C(=O)c2ccccc2)c1 (centres undefined)	0.991

The record that follows has no normalized growth shown yet.
Could you please provide reported normalized growth for COc1cc2c(cc1OC)[C@@H]1C(=O)c3ccc(OC)c(CC=C(C)C)c3O[C@@H]1CO2 ? Thanks! 1.02

* * *

test: chemical genetic growth profiling, strain panel (AID 1159580);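 also: tested at 20 µM; growth read once vehicle control cultures reached saturation at 30 °C; 1 = growth at the plate median or of vehicle wells; lower values mean less growth of the strain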; details: S. cerevisiae deletion strains, growth OD, locus YOR316C, strain cot1, active compounds read low
About 2,000 (36%) of roughly 5,500 compounds were called active. Roughly 18% stayed inconclusive and do not appear here. Some of the results follow.
propertyLabel: normalized growth
Answer as a number with no unit attached.

Consider the reported normalized growth for these compounds:
compound	normalized growth
CC(C(=O)O)c1cccc(C(=O)c2ccccc2)c1 (configuration not stated)	0.968
CC(C(=O)O)c1cccc(Oc2ccccc2)c1 (configuration not stated)	0.962
CC(N)C(=O)OC(C)(C)Cc1ccc(Cl)cc1 (configuration not stated)	0.99
C=C1C([C@]2(C)C(CC(=O)OC)[C@@](C)(COC(C)=O)OC(=O)C[C@@H]2OC(C)=O)[C@@H](OC=O)[C@H](OC(=O)C(OC(C)=O)C(C)CC)[C@@]2(C)[C@H](c3ccoc3)CC(=O)C12O (some centres not stated)	1.03

Could you please provide reported normalized growth for CC(C)CC(NC(=O)C(Cc1ccccc1)NC(=O)CNC(=O)CNC(=O)C(N)Cc1ccc(O)cc1)C(=O)O (configuration not stated) ? Thanks! 0.989

Could you please provide reported normalized growth for COc1cc(O)c(C(=O)/C=C/c2ccccc2)c(OC)c1 ? Thanks! 0.931

Could you please provide reported normalized growth for CC(=O)OCC(=O)[C@@]1(O)CCC2C3CCC4=CC(=O)CC[C@]4(C)C3C(=O)C[C@@]21C (some centres not stated) ? Thanks! 1.03
